The measured values listed here are drawn from ChEMBL document CHEMBL1138126.

List of pIC50 values.
- Target System: Epidermal growth factor receptor (Homo sapiens)
- Sequence (P00533 whole entry, the tested form may be a part): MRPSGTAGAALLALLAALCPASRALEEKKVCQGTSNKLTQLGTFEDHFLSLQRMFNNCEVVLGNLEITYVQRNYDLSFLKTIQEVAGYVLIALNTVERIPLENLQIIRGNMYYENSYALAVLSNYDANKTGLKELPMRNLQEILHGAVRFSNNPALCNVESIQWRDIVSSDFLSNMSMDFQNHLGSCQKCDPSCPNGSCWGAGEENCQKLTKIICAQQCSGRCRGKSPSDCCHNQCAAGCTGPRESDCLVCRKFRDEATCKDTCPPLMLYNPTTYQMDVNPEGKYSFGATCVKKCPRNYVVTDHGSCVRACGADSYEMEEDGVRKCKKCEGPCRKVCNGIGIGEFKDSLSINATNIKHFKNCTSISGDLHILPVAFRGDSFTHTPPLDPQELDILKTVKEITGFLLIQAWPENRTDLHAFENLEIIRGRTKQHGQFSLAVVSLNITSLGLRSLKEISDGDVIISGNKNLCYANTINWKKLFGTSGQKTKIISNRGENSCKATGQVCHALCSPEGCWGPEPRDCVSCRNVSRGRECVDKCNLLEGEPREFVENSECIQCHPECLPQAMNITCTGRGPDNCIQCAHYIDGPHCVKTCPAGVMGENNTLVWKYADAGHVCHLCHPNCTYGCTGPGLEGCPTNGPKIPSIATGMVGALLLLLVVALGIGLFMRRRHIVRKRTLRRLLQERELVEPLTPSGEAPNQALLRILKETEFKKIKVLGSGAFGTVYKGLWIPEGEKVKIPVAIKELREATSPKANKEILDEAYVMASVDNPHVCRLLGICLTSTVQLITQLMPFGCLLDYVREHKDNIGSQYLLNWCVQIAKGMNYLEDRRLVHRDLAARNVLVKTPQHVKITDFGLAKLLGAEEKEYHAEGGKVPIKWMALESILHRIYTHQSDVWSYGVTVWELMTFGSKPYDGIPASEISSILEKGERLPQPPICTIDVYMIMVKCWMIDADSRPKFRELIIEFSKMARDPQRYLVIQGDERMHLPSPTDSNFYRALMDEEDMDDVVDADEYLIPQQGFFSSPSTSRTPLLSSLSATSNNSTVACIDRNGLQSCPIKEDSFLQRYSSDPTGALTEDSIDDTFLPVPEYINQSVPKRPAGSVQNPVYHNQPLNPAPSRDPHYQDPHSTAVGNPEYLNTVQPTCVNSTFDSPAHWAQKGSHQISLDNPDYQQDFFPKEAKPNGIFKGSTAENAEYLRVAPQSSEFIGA
- Method Description: Inhibition of erbB1 fusion protein expressed in baculovirus by ELISA
FYI, pIC50 means -log10 of a concentration in mol per litre.

Completed entries (count: 4):
Input Smiles: CC(C)N(CC#CC(=O)Nc1cc2c(Nc3ccc(F)c(Cl)c3)ncnc2cn1)C(C)C
Reported Value: 7.36

Input Smiles: O=C(C#CCO)Nc1ccc2ncnc(Nc3ccc(F)c(Cl)c3)c2c1
Reported Value: 8.85

Input Smiles: CCCCC#CC(=O)Nc1cc2c(Nc3ccc(F)c(Cl)c3)ncnc2cn1
Reported Value: 7.82

Input Smiles: O=C(C#CCN1CCOCC1)Nc1cc2c(Nc3ccc(F)c(Cl)c3)ncnc2cn1
Reported Value: 8.51

INPUT: For CCCCN(CC#CC(=O)Nc1cc2c(Nc3ccc(F)c(Cl)c3)ncnc2cn1)CCCC , what is its reported pIC50?
OUTPUT: 7.77

INPUT: Now consider CCN(CC)CC#CC(=O)Nc1cc2c(Nc3ccc(F)c(Cl)c3)ncnc2cn1 and answer again.
OUTPUT: 7.82

INPUT: Now consider CCCCN(CC#CC(=O)Nc1ccc2ncnc(Nc3ccc(F)c(Cl)c3)c2c1)CCCC and answer again.
OUTPUT: 7.40

INPUT: Now consider C#CC(=O)Nc1cc2c(Nc3cccc(Br)c3)ncnc2cn1 and answer again.
OUTPUT: 9.22

INPUT: Now consider CN1CCN(CCC#CC(=O)Nc2cc3c(Nc4ccc(F)c(Br)c4)ncnc3cn2)CC1 and answer again.
OUTPUT: 8.96

INPUT: Now consider CCCC#CC(=O)Nc1cc2c(Nc3ccc(F)c(Cl)c3)ncnc2cn1 and answer again.
OUTPUT: 8.77

INPUT: Now consider CCN(CC)CC#CC(=O)Nc1ccc2ncnc(Nc3ccc(F)c(Cl)c3)c2c1 and answer again.
OUTPUT: 8.51
